target: UniProtKB P08183; experiment: Basal ATPase hydrolysis in recombinant human MDR1 expressed in Pichia pastoris measured after 30 mins in presence of NADH by coupled enzyme assay (reference value: 100 +/- 5 %); parameters: scale not given: the % may be the effect or the level left; conditions: recombinant human MDR1 (P-gp) expressed in Pichia pastoris
Sequence (P08183 whole entry): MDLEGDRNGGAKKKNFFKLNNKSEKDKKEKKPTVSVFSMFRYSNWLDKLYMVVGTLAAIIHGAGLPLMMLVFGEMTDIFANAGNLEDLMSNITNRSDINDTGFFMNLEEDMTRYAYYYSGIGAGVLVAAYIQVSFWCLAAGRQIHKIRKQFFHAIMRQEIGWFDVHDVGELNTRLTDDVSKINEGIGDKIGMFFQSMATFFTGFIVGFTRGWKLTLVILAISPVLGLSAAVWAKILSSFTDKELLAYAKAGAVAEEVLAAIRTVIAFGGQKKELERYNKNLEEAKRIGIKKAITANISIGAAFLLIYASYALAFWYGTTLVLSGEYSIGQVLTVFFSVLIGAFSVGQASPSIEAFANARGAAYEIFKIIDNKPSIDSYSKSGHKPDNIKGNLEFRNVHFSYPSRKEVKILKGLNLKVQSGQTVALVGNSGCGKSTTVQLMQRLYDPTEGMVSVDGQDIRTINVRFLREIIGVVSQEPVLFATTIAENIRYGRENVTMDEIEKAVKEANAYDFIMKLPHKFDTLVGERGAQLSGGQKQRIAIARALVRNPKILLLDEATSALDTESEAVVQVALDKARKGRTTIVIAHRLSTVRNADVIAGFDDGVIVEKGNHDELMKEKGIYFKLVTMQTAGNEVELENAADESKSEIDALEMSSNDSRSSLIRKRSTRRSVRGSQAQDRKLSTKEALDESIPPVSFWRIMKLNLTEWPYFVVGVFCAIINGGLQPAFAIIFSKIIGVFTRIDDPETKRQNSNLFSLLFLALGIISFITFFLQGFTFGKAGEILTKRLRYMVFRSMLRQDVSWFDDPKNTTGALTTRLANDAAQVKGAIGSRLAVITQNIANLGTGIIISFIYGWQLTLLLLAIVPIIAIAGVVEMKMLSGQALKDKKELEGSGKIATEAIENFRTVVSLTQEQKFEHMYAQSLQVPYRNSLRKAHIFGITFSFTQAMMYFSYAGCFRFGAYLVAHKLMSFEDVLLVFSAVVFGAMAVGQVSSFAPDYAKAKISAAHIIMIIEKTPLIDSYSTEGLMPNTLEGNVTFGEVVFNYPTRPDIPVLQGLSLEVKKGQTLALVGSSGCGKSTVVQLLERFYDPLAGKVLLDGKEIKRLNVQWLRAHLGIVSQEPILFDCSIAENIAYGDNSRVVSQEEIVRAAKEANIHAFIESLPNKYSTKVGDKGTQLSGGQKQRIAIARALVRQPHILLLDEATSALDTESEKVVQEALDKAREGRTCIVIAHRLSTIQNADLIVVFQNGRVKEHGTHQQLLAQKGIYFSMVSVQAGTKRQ
Metric: Activity at 0.5 h (%)
One number for each entry, in %.

Below: 4 molecules and their reported Activity at 0.5 h.
Cc1cc(C)c(-c2cc(NC(=O)CSCC(=O)NC(c3ccccc3)c3ccccc3)n(-c3ccccc3)n2)cc1C    76
Cc1cc(C)c(-c2cc(NC(=O)CSc3cccc(NC(=O)c4cncc(Br)c4)c3)n(-c3ccccc3)n2)cc1C    72
Cc1cc(C)c(-c2cc(NC(=O)CSCC(=O)NC34CC5CC(CC(C5)C3)C4)n(-c3ccccc3)n2)cc1C    74
Cc1cc(C)c(-c2cc(NC(=O)CSCC(=O)c3ccc4c(c3)Cc3ccccc3-4)n(-c3ccccc3)n2)cc1C    69

Quick check: Activity at 0.5 h on UniProtKB P08183, item Cc1cc(C)c(-c2cc(NC(=O)CSCC(=O)Nc3ccc4ccccc4c3)n(-c3ccccc3)n2)cc1C ?
70

----------
Give Activity at 0.5 h for every item shown.
molecular target: P-glycoprotein (ABCB1, mouse MDR3) ATPase (Mus musculus); experiment: Effect on verampil-mediated ATPase hydrolysis of recombinant mouse MDR3 expressed in Pichia pastoris measured after 30 mins in presence of NADH by coupled enzyme assay (reference value: 100 +/- 8 %); design: scale not given: the % may be the effect or the level left; details: recombinant mouse MDR3 (P-gp) expressed in Pichia pastoris, read-out: Activity
Sequence (P21447 whole entry): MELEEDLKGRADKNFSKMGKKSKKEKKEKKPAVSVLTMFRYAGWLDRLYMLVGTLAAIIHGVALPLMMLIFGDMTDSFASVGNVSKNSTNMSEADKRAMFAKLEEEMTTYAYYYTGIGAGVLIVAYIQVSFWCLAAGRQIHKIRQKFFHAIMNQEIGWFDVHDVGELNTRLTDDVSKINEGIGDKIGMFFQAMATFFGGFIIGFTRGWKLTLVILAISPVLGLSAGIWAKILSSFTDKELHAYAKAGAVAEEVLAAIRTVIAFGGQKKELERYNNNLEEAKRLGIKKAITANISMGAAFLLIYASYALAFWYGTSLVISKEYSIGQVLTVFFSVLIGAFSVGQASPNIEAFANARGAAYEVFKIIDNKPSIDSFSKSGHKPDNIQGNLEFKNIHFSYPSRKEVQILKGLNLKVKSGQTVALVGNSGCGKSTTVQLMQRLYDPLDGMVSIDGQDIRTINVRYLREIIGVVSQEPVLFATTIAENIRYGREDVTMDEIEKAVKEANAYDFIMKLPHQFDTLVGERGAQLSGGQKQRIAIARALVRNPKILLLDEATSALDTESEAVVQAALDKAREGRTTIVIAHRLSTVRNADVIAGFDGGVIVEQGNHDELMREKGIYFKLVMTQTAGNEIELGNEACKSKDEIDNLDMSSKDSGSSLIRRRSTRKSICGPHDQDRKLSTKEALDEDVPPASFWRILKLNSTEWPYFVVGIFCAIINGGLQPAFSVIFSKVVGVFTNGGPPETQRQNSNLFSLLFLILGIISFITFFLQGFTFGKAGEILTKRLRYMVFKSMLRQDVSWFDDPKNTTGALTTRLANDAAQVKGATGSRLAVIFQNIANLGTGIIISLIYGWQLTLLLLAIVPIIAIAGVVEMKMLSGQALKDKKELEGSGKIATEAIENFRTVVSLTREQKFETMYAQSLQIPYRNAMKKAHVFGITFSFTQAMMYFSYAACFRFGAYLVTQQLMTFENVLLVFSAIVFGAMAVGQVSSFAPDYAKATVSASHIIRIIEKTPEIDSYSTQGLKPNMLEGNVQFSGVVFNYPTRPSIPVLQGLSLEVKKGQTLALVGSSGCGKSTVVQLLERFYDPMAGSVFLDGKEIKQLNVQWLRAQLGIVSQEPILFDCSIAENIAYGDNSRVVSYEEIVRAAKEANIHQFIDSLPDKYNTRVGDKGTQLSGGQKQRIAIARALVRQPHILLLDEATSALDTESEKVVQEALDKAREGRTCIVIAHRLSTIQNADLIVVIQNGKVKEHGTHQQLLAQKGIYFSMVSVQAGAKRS
Answers are plain numbers, in %.

Below: 2 molecules and their reported Activity at 0.5 h.
Cc1cc(C)c(-c2cc(NC(=O)CSCC(=O)NCc3ccc(F)cc3)n(-c3ccccc3)n2)cc1C    98
Cc1cc(C)c(-c2cc(NC(=O)CSCC(=O)Nc3ccc4ncsc4c3)n(-c3ccccc3)n2)cc1C    123

Then there is this molecule:
For the molecule shown here, Cc1cc(C)c(-c2cc(NC(=O)CSCC(=O)c3ccc4c(c3)Cc3ccccc3-4)n(-c3ccccc3)n2)cc1C , give the reported Activity at 0.5 h.
108

----------
Give pKd for every item shown.
target: P-glycoprotein 1 Abcb1a (Mus musculus); assay: Inhibition of spin-labelled adenine nucleotide interaction with mouse MDR3 P-gp expressed in Escherichia coli BL21 (DE3) assessed as apparent dissociation constant by ESR analysis (reference value: 36.5 +/- 3.6 uM)
Give bare numbers, as −log10 of the molar value.

I have 8 molecules here; please give me pKd for each one.
1. Cc1cc(C)c(-c2cc(NC(=O)CSc3nnc4c(n3)[nH]c3ccccc34)n(-c3ccccc3)n2)cc1C
2. Cc1cc(C)c(-c2cc(NC(=O)CSCC(=O)NC34CC5CC(CC(C5)C3)C4)n(-c3ccccc3)n2)cc1C
3. Cc1cc(C)c(-c2cc(NC(=O)CSCC(=O)Nc3ccc4ncsc4c3)n(-c3ccccc3)n2)cc1C
4. Cc1cc(C)c(-c2cc(NC(=O)CSCC(=O)Nc3ccc4ccccc4c3)n(-c3ccccc3)n2)cc1C
5. Cc1cc(C)c(-c2cc(NC(=O)CSCC(=O)NC(c3ccccc3)c3ccccc3)n(-c3ccccc3)n2)cc1C
6. Cc1cc(C)c(-c2cc(NC(=O)CSCC(=O)N3c4ccccc4CCc4ccccc43)n(-c3ccccc3)n2)cc1C
7. Cc1cc(C)c(-c2cc(NC(=O)CSCC(=O)c3ccc4c(c3)Cc3ccccc3-4)n(-c3ccccc3)n2)cc1C
8. Cc1cc(C)c(-c2cc(NC(=O)CSc3cccc(NC(=O)c4cncc(Br)c4)c3)n(-c3ccccc3)n2)cc1C

1. 4.62
2. 4.64
3. 4.59
4. 4.65
5. 4.67
6. 4.43
7. 4.64
8. 4.64
